CC50 at 72 h by entry:
# test.details: XTT proliferation assay for cellular toxicity
# Format: cell-based
# condition.parameters: human; cytotoxicity in Hela cells, XTT
# Protocol: The anti-HIV-1 activity of target compounds was evaluated in a single cycle replication assay evaluated in our laboratory and reported previously. […] The inhibition rate (%) of p24 expression was measured by capture ELISA (Biomerieux, France) 72 hours after inoculation. Percentage inhibition of p24 expression in treated culture was calculated as inhibition rate of p24 (%). […]
# output: bare number, implied unit µM

[
  {
    "molecule": "NC(=O)C1=C(O)c2ccccc2S(=O)(=O)N1Cc1ccc(F)cc1 [Compound 13l]",
    "quantity.unit": "µM",
    "CC50 at 72 h": 650
  },
  {
    "molecule": "CN1C(C(=O)Nc2ccccn2)=C(O)c2ccccc2S1(=O)=O [Piroxicam, piroxicam, reference compound]",
    "quantity.unit": "µM",
    "CC50 at 72 h": 900
  },
  {
    "molecule": "NC(=O)C1=C(O)c2ccccc2S(=O)(=O)N1Cc1ccc([N+](=O)[O-])cc1 [Compound 13m]",
    "quantity.unit": "µM",
    "CC50 at 72 h": 650
  }
]

Exercise: Which CC50 at 72 h value is on record for CCN1C(C(N)=O)=C(O)c2ccccc2S1(=O)=O [Compound 13a] ?
Key: 550

Exercise: Next molecule: "NC(=O)C1=C(O)c2ccccc2S(=O)(=O)N1"
Key: 950

Exercise: Next molecule: COc1cccc(CN2C(C(N)=O)=C(O)c3ccccc3S2(=O)=O)c1 [Compound 13f]
Key: 640

Exercise: Next molecule: NC(=O)C1=C(O)c2ccccc2S(=O)(=O)N1CC1CCCCC1 [Compound 13b]
Key: 400

* * *

CC50 at 72 h by entry:
# test.details: XTT proliferation assay for cellular toxicity
# Assay type: cell-based
# condition.parameters: human; cytotoxicity in Hela cells, XTT
# output: bare number, implied unit µM

Examples with their reported CC50 at 72 h follow.
[
  {
    "compound": "NC(=O)C1=C(O)c2ccccc2S(=O)(=O)N1Cc1ccc(Cl)cc1 [Compound 13h]",
    "CC50 at 72 h / µM": 610
  },
  {
    "compound": "NC(=O)C1=C(O)c2ccccc2S(=O)(=O)N1Cc1ccccc1 [Compound 13c]",
    "CC50 at 72 h / µM": 600
  },
  {
    "compound": "Cc1ccccc1CN1C(C(N)=O)=C(O)c2ccccc2S1(=O)=O [Compound 13e]",
    "CC50 at 72 h / µM": 650
  },
  {
    "compound": "NC(=O)C1=C(O)c2ccccc2S(=O)(=O)N1Cc1ccccc1F [Compound 13j]",
    "CC50 at 72 h / µM": 680
  },
  {
    "compound": "Cc1ccc(CN2C(C(N)=O)=C(O)c3ccccc3S2(=O)=O)cc1 [Compound 13d]",
    "CC50 at 72 h / µM": 680
  }
]

Exercise: Which CC50 at 72 h value is on record for NC(=O)C1=C(O)c2ccccc2S(=O)(=O)N1Cc1cccc(F)c1 [Compound 13k] ?
Key: 550

Exercise: Next compound: NC(=O)C1=C(O)c2ccccc2S(=O)(=O)N1Cc1ccccc1Cl [Compound 13g]
Key: 650

Entry source: paper PMC8653674
